# method: PK parameters, IP dosing (plasma and brain exposure)
# Type: in vivo
# condition.summary: brain/plasma; Mouse IP; read-out: Brain AUC/Plasma AUC
quantity: Kp

# annotated cases, reported Kp shown
Req: Form field: reported Kp of Nc1ccc(-c2cccs2)cc1NC(=O)c1ccc(OCCO)cn1 [Compound 005]
Resp: 0.1 to 1.5

Req: How about this compound: Nc1ccc(-c2cccs2)cc1NC(=O)c1ncc(N2CCNCC2)cn1 [Compound 007]
Resp: 0.1 to 1.5

Req: How about this compound: Nc1ccc(-c2cccs2)cc1NC(=O)c1ccc(NC2CCN(C(=O)N3CCNCC3)CC2)cn1 [Compound 014]
Resp: 0.01 to 0.1

Req: How about this compound: Nc1ccc(-c2ccoc2)cc1NC(=O)c1ncc(N2CCNCC2)cn1 [Compound 015]
Resp: 0.01 to 0.1

Req: How about this compound: CN1CCN(c2cnc(C(=O)Nc3cc(-c4cccs4)ccc3N)nc2)CC1 [Compound 006]
Resp: 0.1 to 1.5

Next:
Req: Form field: reported Kp of COCCOc1ccc(C(=O)Nc2cc(-c3cccs3)ccc2N)nc1 [Compound 004]
Resp: 0.1 to 1.5

Req: How about this compound: CC(=O)N1CCN(c2ccc(C(=O)Nc3cc(-c4cccs4)ccc3N)nc2)CC1 [Compound 010]
Resp: 0.1 to 1.5

Req: How about this compound: Nc1ccc(-c2ccccc2)cc1NC(=O)c1ncc(NCCOCc2cccnc2)cn1 [Compound 016]
Resp: 0.001 to 0.01

Req: How about this compound: Nc1cc(F)c(-c2cccs2)cc1NC(=O)c1ccc(N2CCNCC2)cn1 [Compound 002]
Resp: 5 to 10

====

# method: PK parameters, IP dosing (plasma and brain exposure)
# Format: in vivo
# Parameters: concentration or dose not given beside the values
# condition.summary: Mouse IP, plasma; read-out: AUC(last) Plasma
Documented AUC(0-t) across a set of compounds

Req: Form field: reported AUC(0-t) of Nc1ccc(-c2ccccc2)cc1NC(=O)c1ccc(N2CCNCC2)nn1 [Compound 003]
Resp: 4700 to 4800 ng·h/mL

Req: How about this compound: COCCOc1ccc(C(=O)Nc2cc(-c3cccs3)ccc2N)nc1 [Compound 004]
Resp: 2300 to 2400 ng·h/mL

Req: How about this compound: CNS(=O)(=O)Oc1ccc(-c2ccc(N)c(NC(=O)c3ccc(N4CCN(C)CC4)cn3)c2)cc1 [Compound 011]
Resp: 900 to 1000 ng·h/mL

Req: How about this compound: COCCOc1ccc(C(=O)Nc2cc(-c3cccs3)ccc2N)nn1 [Compound 008]
Resp: 2900 to 3000 ng·h/mL

Req: How about this compound: Nc1ccc(-c2ccccc2)cc1NC(=O)c1ncc(NCCOCc2cccnc2)cn1 [Compound 016]
Resp: 900 to 1000 ng·h/mL

Next:
Req: Form field: reported AUC(0-t) of Cc1ccc(-c2ccc(N)c(NC(=O)c3ccc(N4CCNCC4)cn3)c2)cc1 [Compound 001]
Resp: 6700 to 6800 ng·h/mL

Req: How about this compound: Nc1ccc(-c2cccs2)cc1NC(=O)c1cnc(N2CCNCC2)cn1 [Compound 017]
Resp: 2700 to 2800 ng·h/mL

Req: How about this compound: Nc1cc(F)c(-c2cccs2)cc1NC(=O)c1ccc(N2CCNCC2)cn1 [Compound 002]
Resp: 2400 to 2500 ng·h/mL

Req: How about this compound: Nc1ccc(-c2cncs2)cc1NC(=O)c1ccc(N2CCNCC2)cn1 [Compound 012]
Resp: 4300 to 4400 ng·h/mL

Req: How about this compound: Nc1ccc(-c2ccccc2)cc1NC(=O)c1ncc(N2CCNCC2)cn1 [Compound 009]
Resp: 1700 to 1800 ng·h/mL

Req: How about this compound: Nc1ccc(-c2cccs2)cc1NC(=O)c1ccc(OC[C@H](O)CO)cn1 [Compound 013]
Resp: 5900 to 6000 ng·h/mL

Req: How about this compound: CC(=O)N1CCN(c2ccc(C(=O)Nc3cc(-c4cccs4)ccc3N)nc2)CC1 [Compound 010]
Resp: 2000 to 2100 ng·h/mL

These data points were gathered from patent US20210332036A1.
